These measurements were taken from the supplement of paper PMC11208160.

// values below are reported recombinant barcode read abundance (log10)
# assay-details: recombinant barcode read abundance after kanamycin selection (control-corrected) (log10(CPM+1)); higher = more efficient recombination; sequences stand for … in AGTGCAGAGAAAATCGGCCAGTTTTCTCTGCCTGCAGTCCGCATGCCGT…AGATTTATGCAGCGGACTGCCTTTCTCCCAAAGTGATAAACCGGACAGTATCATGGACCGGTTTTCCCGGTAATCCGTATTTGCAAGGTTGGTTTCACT; site = the 11-nt target;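 further: IS621 recombinase and bridge RNA in Escherichia coli cells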
measure: recombinant barcode read abundance (log10)

{"sequence-string": "TGGAGCCCTTGGGTTCTAACCTGTTGCAA (site TGGAGCCCTCT)", "observed-value": 0.0367}
{"sequence-string": "CGCCTTCCTTGGGTTCTAACCTGTTGCAT (site CGCCTTCCTAT)", "observed-value": 0.0767}
{"sequence-string": "ATGCCGACTTGGGTTCTAACCTGTTGCCT (site ATGCCGACTAG)", "observed-value": 1.02}
{"sequence-string": "CTACGTTCTTGGGTTCTAACCTGTTGCAC (site CTACGGTCTGT)", "observed-value": 0.0816}
{"sequence-string": "GAGGCTCCTTGGGTTCTAACCTGTTGCCA (site GAGGCTCCTTG)", "observed-value": 0.365}
{"sequence-string": "TAGTTGACTTGGGTTCTAACCTGTTGCCA (site TAGTTGACTTG)", "observed-value": 0.986}
{"sequence-string": "TCAGCCTCTTGGGTTCTAACCTGTTGCCT (site CTGTGTCCTCC)", "observed-value": 0.11}
{"sequence-string": "GCGTCCACTTGGGTTCTAACCTGTTGCTA (site GCGTCCACTTA)", "observed-value": 0.0606}
{"sequence-string": "TCGAACGCTTGGGTTCTAACCTGTTGCTT (site TCGAACGCTAA)", "observed-value": 0.135}
{"sequence-string": "AAAGCTACTTGGGTTCTAACCTGTTGCCT (site AAAGCTCCTAA)", "observed-value": 0.124}
{"sequence-string": "GACTTGACTTGGGTTCTAACCTGTTGCCT (site GACTTGACTAG)", "observed-value": 1.13}
{"sequence-string": "CTCTCGTCTTGGGTTCTAACCTGTTGCCT (site CTCTCGTCTAA)", "observed-value": 0.11}
{"sequence-string": "CTATGACCTTGGGTTCTAACCTGTTGCTT (site CTATGACCTAC)", "observed-value": 0.0411}
{"sequence-string": "TAGAAGCCTTGGGTTCTAACCTGTTGCCT (site CAGAAGCCTAG)", "observed-value": 0.43}
{"sequence-string": "TATCAGCCTTGGGTTCTAACCTGTTGCTT (site CATCAGCCTAC)", "observed-value": 0.0522}
{"sequence-string": "CATAATTCTTGGGTTCTAACCTGTTGCCT (site CATAATTCTAG)", "observed-value": 0.445}
{"sequence-string": "AGAGGGTCTTGGGTTCTAACCTGTTGCTT (site AGAGGGTCTAA)", "observed-value": 1.82}
{"sequence-string": "CAGTGGACTTGGGTTCTAACCTGTTGCCT (site CAGTGGACTAG)", "observed-value": 2.04}
{"sequence-string": "ATGCGCCCTTGGGTTCTAACCTGTTGCCT (site ATGCGCCCTAG)", "observed-value": 0.717}
{"sequence-string": "CGCTGCCCTTGGGTTCTAACCTGTTGCTT (site CGCTGTCCTAA)", "observed-value": 0.512}
{"sequence-string": "GTCTCTACTTGGGTTCTAACCTGTTGCCG (site GTCTCTACTCG)", "observed-value": 0.0442}
